# Assay system: CYP2C9 (Homo sapiens)
# Construct: purchased Life Technologies (and Panvera), Invitrogen
# Assay remarks: CYP2C9 baculosomes, diclofenac hydroxylation, inhibition
# Assay type: biochemical
# Test context: CYP2C9+Diclof; KM taken as 10 µM; 10 nM CYP, 100 µM diclofenac, 200 µM NADPH; read-out: Global Ki, non-linear regression
Measure: Ki (nM)
Answers are plain numbers, in nM.

**Q:** Give CYP2C9 (Homo sapiens) Ki for CCc1oc2ccccc2c1C(=O)c1cc(I)c(O)c(I)c1
**A:** 2.8

====

# Assay system: CYP2C9 (Homo sapiens)
# Construct: purchased Life Technologies (and Panvera), Invitrogen
# Assay remarks: CYP2C9 baculosomes, diclofenac hydroxylation, inhibition
# Format: biochemical
# Test context: CYP2C9+Diclof; 10 nM CYP, 100 µM diclofenac, 200 µM NADPH; read-out: Global Ki, linear regression
Measure: pKi
Answers are plain numbers, as −log10 of the molar value.

**Q:** Request the reported pKi associated with CCc1oc2ccccc2c1C(=O)c1cc(I)c(O)c(I)c1
**A:** 4.51

====

# Assay system: CYP2C9 (Homo sapiens, UniProt P11712)
# Construct: purchased Life Technologies (and Panvera), Invitrogen
# Sequence (P11712 whole entry): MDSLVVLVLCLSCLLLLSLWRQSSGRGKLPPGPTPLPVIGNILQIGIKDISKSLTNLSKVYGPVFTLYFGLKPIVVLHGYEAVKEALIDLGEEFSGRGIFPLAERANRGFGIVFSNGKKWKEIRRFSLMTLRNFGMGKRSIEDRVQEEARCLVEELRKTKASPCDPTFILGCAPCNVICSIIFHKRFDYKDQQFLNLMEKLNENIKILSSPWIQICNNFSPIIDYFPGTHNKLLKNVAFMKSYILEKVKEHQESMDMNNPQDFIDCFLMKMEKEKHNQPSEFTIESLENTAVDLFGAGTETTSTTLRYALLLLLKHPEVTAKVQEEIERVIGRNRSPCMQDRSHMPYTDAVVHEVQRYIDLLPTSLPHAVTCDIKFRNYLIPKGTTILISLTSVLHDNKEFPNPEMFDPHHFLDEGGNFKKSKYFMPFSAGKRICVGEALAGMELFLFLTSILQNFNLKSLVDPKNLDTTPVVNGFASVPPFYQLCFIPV
# Assay remarks: CYP2C9 baculosomes, diclofenac hydroxylation, inhibition
# Assay type: biochemical
# Test context: CYP2C9+Diclof; [I] 1 µM; read-out: Localized Ki, Cheng-Prusoff equation
Measure: Ki (µM)
Give bare numbers, in µM.

input_smiles=Oc1c(Br)cccc1Br assay_system="CYP2C9 (Homo sapiens, UniProt P11712)" display_unit=µM observed_result=2.61

Count: 3. Required value per item: Ki.
1. CCc1oc2ccccc2c1C(=O)c1cc(I)c(O)c(I)c1
2. O=C(O)c1cc(Br)c(O)c(Br)c1
3. COc1cc(Br)c(O)c(Br)c1

**A:**
[0.0091, 0.0899, 0.306]

====

Field: pKi. Provide a value for each of the molecules that follow.
# Assay system: CYP2C9 (Homo sapiens)
# Construct: purchased Life Technologies (and Panvera), Invitrogen
# Assay remarks: CYP2C9 baculosomes, diclofenac hydroxylation, inhibition
# Format: biochemical
# Test context: CYP2C9+Diclof; [I] 0.01 µM; read-out: Localized Ki, Chance equation
One number for each entry, as −log10 of the molar value.

Example entries and their recorded answers appear below.
molecule=O=C(O)c1cc(Br)c(O)c(Br)c1 measure=pKi observed_result=8.19
molecule="NC(Cc1cc(I)c(O)c(I)c1)C(=O)O (stereo not drawn)" measure=pKi observed_result=8.26

Next:
**Q:** Request the reported pKi associated with CCc1oc2ccccc2c1C(=O)c1cc(I)c(O)c(I)c1
**A:** 6.61

====

# Assay system: rat liver microsomes (mixed CYPs)
# Assay remarks: Rat liver microsomes, diclofenac hydroxylation, inhibition
# Type: biochemical
# Test context: Microsomes+Diclof; 0.5 µM CYP, 200 µM diclofenac, 400 µM NADPH; read-out: Global Ki, linear regression
Measure: Ki (nM)
Answers are plain numbers, in nM.

**Q:** Request the reported Ki associated with CCc1oc2ccccc2c1C(=O)c1ccc(OC)cc1
**A:** 242

====

# Assay system: rat liver microsomes (mixed CYPs)
# Assay remarks: Rat liver microsomes, diclofenac hydroxylation, inhibition
# Assay type: biochemical
# Test context: read-out: Ki at 100 µM inhibitor; microsome setups, 100 µM inhibitor
Measure: pKi
Numbers only, as −log10 of the molar value.

**Q:** Request the reported pKi associated with CCc1oc2ccccc2c1C(=O)c1cc(Br)c(OC)c(Br)c1
**A:** 5.43

====

# Assay system: CYP2C9 (Homo sapiens)
# Construct: purchased Life Technologies (and Panvera), Invitrogen
# Assay remarks: CYP2C9 baculosomes, diclofenac hydroxylation, inhibition
# Assay type: biochemical
# Test context: CYP2C9+Diclof; [I] 100 µM; read-out: Localized Ki, Chance equation
Measure: Ki
Dear colleague, please send the value followed by its unit.

**Q:** Request the reported Ki associated with CCc1oc2ccccc2c1C(=O)c1cc(I)c(O)c(I)c1
**A:** 190 µM

====

# Assay system: CYP2C9 (Homo sapiens)
# Construct: purchased Life Technologies (and Panvera), Invitrogen
# Assay remarks: CYP2C9 baculosomes, diclofenac hydroxylation, inhibition
# Type: biochemical
# Test context: CYP2C9+Diclof; [I] 0.01 µM; read-out: Localized Ki, Cheng-Prusoff equation
Field: Ki. Provide a value for each of the molecules that follow.
Give bare numbers, in nM.

molecule="CCc1oc2ccccc2c1C(=O)c1cc(I)c(O)c(I)c1 [BzIr, benziodarone]" observed_result=2.6

**Q:** Request the reported Ki associated with NC(Cc1cc(I)c(O)c(I)c1)C(=O)O (centres unmarked) [DIT]
**A:** 0.7

====

Field: Ki. Provide a value for each of the compounds that follow.
# Assay system: CYP2C9 (Homo sapiens)
# Construct: purchased Life Technologies (and Panvera), Invitrogen
# Assay remarks: CYP2C9 baculosomes, diclofenac hydroxylation, inhibition;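 also: reactions run at 27 °C in 100 mM potassium phosphate, pH 7.4, in a 250 µl volume, with hydroxylated product quantified from HPLC peak areas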
# Format: biochemical
# Test context: CYP2C9+Diclof; [I] 100 µM; read-out: Localized Ki, Cheng-Prusoff equation
Answers are plain numbers, in µM.

Example entries and their recorded answers appear below.
compound=CCc1oc2ccccc2c1C(=O)c1cc(I)c(O)c(I)c1 display_unit=µM observed_result=0.65
compound=O=C(O)c1cc(Br)c(O)c(Br)c1 display_unit=µM observed_result=8.68

Count: 2. Required value per item: Ki.
1. NC(Cc1cc(I)c(O)c(I)c1)C(=O)O (stereo not shown)
2. COc1cc(Br)c(O)c(Br)c1

**A:**
1. 42.6
2. 95.4
